system: BV-2; assay: Anti-neuroinflammation in mouse BV2 cells assessed as inhibition of LPS-induced NO production preincubated for 1 hr followed by LPS addition measured after 24 hrs by Griess reagent based assay; format: functional, cell-based
readout: IC50 (µM)

The examples below pair each entry with its known result.
compound	systemName	IC50 [µM]
CC(=O)Nc1cccc(S(=O)(=O)Nc2ccc(-c3nc(-c4ccnc(Nc5ccc(OC(F)(F)F)cc5)c4)no3)cc2)c1	BV-2	7.55
CC(C)(C)c1ccc(S(=O)(=O)Nc2ccc(-c3nc(-c4ccnc(Nc5ccc(C(F)(F)F)cc5)c4)no3)cc2)cc1	BV-2	8.69
CC(C)(C)c1ccc(Nc2cc(-c3noc(-c4ccc(NS(=O)(=O)c5ccc(C(C)(C)C)cc5)cc4)n3)ccn2)cc1	BV-2	10.9
CC(=O)c1ccc(S(=O)(=O)Nc2ccc(-c3nc(-c4ccnc(Nc5ccc(OC(F)(F)F)cc5)c4)no3)cc2)cc1	BV-2	0.47
O=S(=O)(Nc1ccc(-c2nc(-c3ccnc(Nc4ccc(OC(F)(F)F)cc4)c3)no2)cc1)c1ccc(F)cc1	BV-2	4.41

(1) O=S(=O)(Nc1ccc(-c2nc(-c3ccnc(Nc4ccc(OC(F)(F)F)cc4)c3)no2)cc1)c1ccc(Br)cc1
(2) O=[N+]([O-])c1cccc(S(=O)(=O)Nc2ccc(-c3nc(-c4ccnc(Nc5ccc(OC(F)(F)F)cc5)c4)no3)cc2)c1
(3) COC(=O)c1ccc(S(=O)(=O)Nc2ccc(-c3nc(-c4ccnc(Nc5ccc(OC(F)(F)F)cc5)c4)no3)cc2)s1
## Input Could you please sort these 3 entries by IC50 from high to low? Give the labels in the order specified.
## Output 1, 2, 3

====

assay: Apparent permeability from basolateral to apical side in MDCK2-MDR1 measured upto 120 mins; type: ADME, Canis lupus familiaris, MDCK-II; settings: dog, MDCK-MDR1, read-out: permeability
readout: Papp B→A at 2 h (×10⁻⁶ cm/s)
The response must be a number in ×10⁻⁶ cm/s with no trailing unit.

## Input Reported Papp B→A at 2 h for CC(C)(C)c1ccc(S(=O)(=O)Nc2ccc(-c3nc(-c4ccnc(Nc5cccc(Cl)c5)c4)no3)cc2)cc1 : what is it?
## Output 19.3

====

assay: Cytotoxicity against rat PC-12 cells assessed as cell viability at 50 uM by MTT assay relative to control; assay type: cell-based; details: read-out: Activity
readout: viability at 50 µM (%)
The reply should be a number in %, with the unit left off.

givenSmiles	viability at 50 µM, %
CC(C)(C)c1ccc(S(=O)(=O)Nc2ccc(-c3nc(-c4ccnc(Nc5ccc(F)c(C(F)(F)F)c5)c4)no3)cc2)cc1	75.9
CC(C)(C)c1ccc(S(=O)(=O)Nc2ccc(-c3nc(-c4ccnc(Nc5ccc(OC(F)(F)F)cc5)c4)no3)cc2)cc1	95.3
O=S(=O)(Nc1ccc(-c2nc(-c3ccnc(Nc4ccc(OC(F)(F)F)cc4)c3)no2)cc1)c1ccccc1OC(F)(F)F	85.6
O=[N+]([O-])c1ccc(S(=O)(=O)Nc2ccc(-c3nc(-c4ccnc(Nc5ccc(OC(F)(F)F)cc5)c4)no3)cc2)cc1	90.5
O=[N+]([O-])c1cccc(S(=O)(=O)Nc2ccc(-c3nc(-c4ccnc(Nc5ccc(OC(F)(F)F)cc5)c4)no3)cc2)c1	94.3
O=S(=O)(Nc1ccc(-c2nc(-c3ccnc(Nc4ccc(OC(F)(F)F)cc4)c3)no2)cc1)c1cccc(C(F)(F)F)c1	90.4

Now, please, on to the next compound.
## Input Any idea what viability at 50 µM was measured for CC(C)c1ccc(Nc2cc(-c3noc(-c4ccc(NS(=O)(=O)c5ccc(C(C)(C)C)cc5)cc4)n3)ccn2)cc1 ?
## Output 78.8
